test system: human Factor 11 mRNA; test: Dose-dependent inhibition of human Factor 11 in HepB3 cells, electroporation (Example 7); assay type: cell-based; conditions: 370.37 nM, ~16 hours
property: percent inhibition of human Factor 11 mRNA relative to untreated control cells
Please format your answer as a value with the unit trailing.

Worked examples follow.
> print(dat)
                                  substance  result
1  416892 (antisense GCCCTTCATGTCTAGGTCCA; 3-14-3 chimeric gapmer, further chemistry not given here) [compound 416892]     28%
2  416838 (antisense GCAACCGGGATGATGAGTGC; 5-10-5 gapmer, further chemistry not given here) [compound 416838]     28%
3  416858 (antisense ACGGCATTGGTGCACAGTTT; 5-10-5 gapmer, further chemistry not given here) [compound 416858]     52%
4  417002 (antisense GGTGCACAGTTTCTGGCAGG; 2-13-5 gapmer chemistry, further chemistry not given here) [compound 417002]     31%
5  416925 (antisense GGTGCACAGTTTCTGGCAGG; 3-14-3 gapmer chemistry, further chemistry not given here) [compound 416925]     50%
6  416825 (antisense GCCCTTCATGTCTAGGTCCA; 5-10-5 gapmer, further chemistry not given here) [compound 416825]     48%
7  416864 (antisense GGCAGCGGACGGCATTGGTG; 5-10-5 gapmer, further chemistry not given here) [compound 416864]      6%
8  416850 (antisense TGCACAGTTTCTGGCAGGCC; 5-10-5 gapmer, further chemistry not given here) [compound 416850]     51%

Short answer on human Factor 11 mRNA for 417003 (antisense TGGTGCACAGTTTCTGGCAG; 2-13-5 gapmer chemistry, further chemistry not given here) [compound 417003] , percent inhibition of human Factor 11 mRNA relative to untreated control cells: 15%

Short answer on human Factor 11 mRNA for 416826 (antisense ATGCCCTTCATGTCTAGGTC; 5-10-5 gapmer, further chemistry not given here) [compound 416826] , percent inhibition of human Factor 11 mRNA relative to untreated control cells: 34%

Short answer on human Factor 11 mRNA for 416999 (antisense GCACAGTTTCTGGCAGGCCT; 2-13-5 gapmer chemistry, further chemistry not given here) [compound 416999] , percent inhibition of human Factor 11 mRNA relative to untreated control cells: 62%
